TARGET OR TEST SYSTEM: purified ovine COX-2 (Ovis aries, UniProt P79208)
Sequence (P79208 17-603): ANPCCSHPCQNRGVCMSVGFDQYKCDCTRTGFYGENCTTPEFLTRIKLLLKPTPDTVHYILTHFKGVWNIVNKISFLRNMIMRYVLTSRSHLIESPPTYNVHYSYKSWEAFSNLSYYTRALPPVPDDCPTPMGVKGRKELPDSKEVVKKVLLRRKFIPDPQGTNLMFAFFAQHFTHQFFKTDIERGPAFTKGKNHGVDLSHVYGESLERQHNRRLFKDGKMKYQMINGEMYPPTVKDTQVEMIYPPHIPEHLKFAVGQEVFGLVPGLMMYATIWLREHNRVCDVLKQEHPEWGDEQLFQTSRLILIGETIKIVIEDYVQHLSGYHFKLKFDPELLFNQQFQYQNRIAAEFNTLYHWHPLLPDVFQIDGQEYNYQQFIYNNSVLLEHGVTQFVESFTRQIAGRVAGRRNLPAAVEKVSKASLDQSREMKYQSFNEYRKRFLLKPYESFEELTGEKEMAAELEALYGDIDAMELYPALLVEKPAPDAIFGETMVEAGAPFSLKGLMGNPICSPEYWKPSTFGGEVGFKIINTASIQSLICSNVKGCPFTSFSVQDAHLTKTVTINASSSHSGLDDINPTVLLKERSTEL
METHOD NOTES: COX-2 colorimetric enzyme assay with purified isozyme
Type: biochemical
TEST SETTINGS: read-out: COX-2 IC50; purified COX-2 isozyme, arachidonic acid, 25°C, 5 min
Known IC50 of a selection of molecules

Ask | I have this molecule here, CSc1ccc(/C=C2/C(C)=C(CC(=O)NCCN(C)C)c3cc(F)ccc32)cc1 , and I need its recorded IC50.
Reply | 164 µM

Ask | I have this molecule here, CC1=C(CC(=O)O)c2cc(F)ccc2/C1=C\c1ccc([S+](C)[O-])cc1 (centres unmarked) [Sulindac sulfoxide, sulindac] , and I need its recorded IC50.
Reply | > 300 µM

====

Tested on: HT-29 colon tumor cells
METHOD NOTES: Proliferation assay
Format: cell-based, human
TEST SETTINGS: read-out: IC50 to inhibit DNA synthesis (3H-thymidine incorporation); HT-29, 72 h of treatment
Known IC50 of a selection of compounds

COMPOUND	IC50
CSc1ccc(/C=C2/C(C)=C(CC(=O)NCCN(C)C)c3cc(F)ccc32)cc1	1.2 µM

Query compound follows.
Ask | I have this compound here, CC1=C(CC(=O)O)c2cc(F)ccc2/C1=C\c1ccc([S+](C)[O-])cc1 (centres unmarked) [Sulindac sulfoxide, sulindac] , and I need its recorded IC50.
Reply | 222 µM

====

TARGET OR TEST SYSTEM: purified ovine COX-1 (Ovis aries, UniProt P05979)
Sequence (P05979 25-600): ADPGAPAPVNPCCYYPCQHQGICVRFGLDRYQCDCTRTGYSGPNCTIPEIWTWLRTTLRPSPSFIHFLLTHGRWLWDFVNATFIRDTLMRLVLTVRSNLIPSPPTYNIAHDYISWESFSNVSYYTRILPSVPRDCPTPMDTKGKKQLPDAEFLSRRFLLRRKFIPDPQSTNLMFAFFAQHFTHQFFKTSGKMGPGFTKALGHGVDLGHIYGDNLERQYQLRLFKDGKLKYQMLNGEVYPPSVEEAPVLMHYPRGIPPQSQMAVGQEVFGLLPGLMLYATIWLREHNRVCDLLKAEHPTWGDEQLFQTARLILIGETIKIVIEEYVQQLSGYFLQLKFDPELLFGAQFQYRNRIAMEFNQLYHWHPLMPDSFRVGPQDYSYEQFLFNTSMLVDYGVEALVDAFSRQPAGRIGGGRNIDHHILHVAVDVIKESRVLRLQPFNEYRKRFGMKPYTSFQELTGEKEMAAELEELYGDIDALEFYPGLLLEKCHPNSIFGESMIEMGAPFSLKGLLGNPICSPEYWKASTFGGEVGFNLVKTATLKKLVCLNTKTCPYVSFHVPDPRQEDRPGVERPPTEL
METHOD NOTES: COX-1 colorimetric enzyme assay with purified isozyme
Format: biochemical
METRIC NAME: IC50 (nM)
Only the number, expressed in nM, is required.

Ask | I have this compound here, CSc1ccc(/C=C2/C(C)=C(CC(=O)O)c3cc(F)ccc32)cc1 [SS, sulindac sulfide] , and I need its recorded IC50.
Reply | 1800

====

TARGET OR TEST SYSTEM: purified ovine COX-2 (Ovis aries, UniProt P79208)
METHOD NOTES: COX-2 colorimetric enzyme assay with purified isozyme
Format: biochemical
METRIC NAME: pIC50
Scale for pIC50: -log10 of concentration given in mol/L; no unit attached.

Ask | # get_value(readout= pIC50, system= purified ovine COX-2 (Ovis aries, UniProt P79208)) for CS(=O)(=O)c1ccc(C2=C(c3ccccc3)C(=O)OC2)cc1
Reply | 5.57
